# System: RAW-Dual (murine macrophage reporter line)
# procedureSummary: IRF reporter (Lucia luciferase) activity fold change vs agonist alone; higher = enhanced IRF activity
# condition: modulator concentration 10 µM; agonist: 3'3'-cGAMP 10 ug/mL
experimentalEndpoint: IRF reporter

{"molecule": "Cc1ccc(C)n1-c1ccc(C(=O)OCC(=O)c2ccc([N+](=O)[O-])cc2)cc1", "measurement": 0.666}
{"molecule": "CCCOc1cccc(C(=O)Nc2scc(-c3ccccc3Cl)c2C(=O)OC)c1", "measurement": 1.03}
{"molecule": "CNCC[C@@H](Oc1cccc2ccccc12)c1cccs1", "measurement": 1.19}
{"molecule": "COc1ccc(C2Sc3ccccc3N(CCN(C)C)C(=O)C2OC(C)=O)cc1.Cl (stereo not given)", "measurement": 0.966}
{"molecule": "N=C(N)Nc1nc(-c2ccccc2)c(-c2ccccc2)s1", "measurement": 1.27}
{"molecule": "Nc1nc(NC2CC2)c2ncn([C@H]3C=C[C@@H](CO)C3)c2n1.Nc1nc(NC2CC2)c2ncn([C@H]3C=C[C@@H](CO)C3)c2n1.O=S(=O)(O)O", "measurement": 0.864}
{"molecule": "CC(CN1c2ccccc2Sc2cccnc21)N(C)C.Cl (stereo not given)", "measurement": 1.03}
{"molecule": "O=c1cc(O)c(Cl)c[nH]1", "measurement": 1.01}
{"molecule": "Cc1ccc(C23CC4CC(CC(CN)(C4)C2)C3)cc1C.Cl", "measurement": 0.11}
{"molecule": "COc1ccc(NC(=O)CN(c2ccc(C)c(C)c2)S(C)(=O)=O)cc1Cl", "measurement": 0.857}

Reference source: the supplement of paper PMC10646978
